Values were extracted from paper PMC8220418.

Measured pKd of individual entries
biological target: ArgB (Mycobacterium tuberculosis); assay: biochemical; format: binding; settings: ITC Kd, six-site sequential binding model, 5th value, 25 °C, sequential binding, six-site model
Note on units: pKd is unitless, being -log10 of a concentration expressed in mol/L.

NC(N)=NOCC[C@H](N)C(=O)O [L-canavanine, reference compound]	4.46

For the next question, use this compound.
IN: Query: pKd; subject: N=C(N)NCCC[C@H](N)C(=O)O
OUT: 4.89

---

molecular target: ArgC (Mycobacterium tuberculosis); assay: Differential scanning fluorimetry (DSF) fragment screening against ArgC; assay type: binding; settings: fragments at 5 mM, 2.5 μM ArgC
Sequence (P9WPZ9 whole entry, the tested form may be a part): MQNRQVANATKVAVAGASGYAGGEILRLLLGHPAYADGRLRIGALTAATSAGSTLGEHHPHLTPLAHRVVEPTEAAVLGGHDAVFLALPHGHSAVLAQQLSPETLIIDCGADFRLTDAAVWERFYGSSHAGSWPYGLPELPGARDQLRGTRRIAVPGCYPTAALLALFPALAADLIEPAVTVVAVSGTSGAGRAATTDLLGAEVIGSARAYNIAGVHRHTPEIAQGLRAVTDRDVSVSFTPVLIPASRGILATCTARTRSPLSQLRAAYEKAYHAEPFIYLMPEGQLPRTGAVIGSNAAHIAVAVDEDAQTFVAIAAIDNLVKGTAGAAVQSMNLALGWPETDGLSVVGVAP
ΔTm at 5000 µM values, listed per item
Report as a plain number; the unit °C is understood.

IN: // query ΔTm at 5000 µM value for entry Nc1ccc(Oc2ccccc2)nc1 [NMR401, 6-phenoxy-3-pyridinamine]
OUT: 4.8
